- Tested on: NCI-H1437
- METHOD_DESCRIPTION: relative viability (nuclei count vs DMSO), 5 days (fraction); higher = more cells survive
- MEASUREMENT_CONDITIONS: first compound 158.11 µM
Listed next: entries and their corresponding relative viability.
Lab note: jot the number down without any unit.

Worked cases, answers included:
[[record]]
compound = "O=C(O)CCCCC(CCSCc1ccccc1)SCc1ccccc1 (stereo not given) [CPI-613] + C[C@@H](Oc1cc(-c2cnn(C3CCNCC3)c2)cnc1N)c1c(Cl)ccc(F)c1Cl [Crizotinib] (partner 1 µM)"
number = 0.229

[[record]]
compound = "O=C(O)CCCCC(CCSCc1ccccc1)SCc1ccccc1 (stereo not given) [CPI-613] + CC1(C)CCC(c2ccc(Cl)cc2)=C(CN2CCN(c3ccc(C(=O)NS(=O)(=O)c4ccc(N[C@H](CCN5CCOCC5)CSc5ccccc5)c(S(=O)(=O)C(F)(F)F)c4)cc3)CC2)C1 [Navitoclax] (partner 0.5 µM)"
number = 0.199

[[record]]
compound = "O=C(O)CCCCC(CCSCc1ccccc1)SCc1ccccc1 (stereo not given) [CPI-613] + CS(=O)(=O)CCNCc1ccc(-c2ccc3ncnc(Nc4ccc(OCc5cccc(F)c5)c(Cl)c4)c3c2)o1 [Lapatinib] (partner 2 µM)"
number = 0.185

[[record]]
compound = "O=C(O)CCCCC(CCSCc1ccccc1)SCc1ccccc1 (stereo not given) [CPI-613] + CS(=O)(=O)N1CCN(Cc2cc3nc(-c4cccc5[nH]ncc45)nc(N4CCOCC4)c3s2)CC1 [Pictilisib] (partner 1 µM)"
number = 0.181


Turning to the following compound.
Data point: O=C(O)CCCCC(CCSCc1ccccc1)SCc1ccccc1 (stereo not given) [CPI-613] + CC(=O)Nc1cccc(-n2c(=O)n(C3CC3)c(=O)c3c(Nc4ccc(I)cc4F)n(C)c(=O)c(C)c32)c1 [Trametinib] (partner 0.02 µM) ; relative viability = 0.0999
